- Test system: OVCAR-4
- EXPERIMENT: NCI tumour cell line growth inhibition, 48 h
Activity calls are given as the source filed them. Cut-off read from the data, not from the text of the source: active = GI50 up to about 1.1 µM and inactive = higher.
MEASURED METRIC: GI50

Cc1nc2cccc(F)c2c(=O)n1-c1nnc(C2CC2)s1 :: > 10 µM (inactive)
Cc1ccc(-c2nnc(SCC(=O)O)[nH]2)cc1 :: > 100 µM (inactive)
CS(=O)(=O)OCC1CCCCCCCCCCC12SCCCS2 (stereo not drawn) :: > 100 µM (inactive)
Cc1ccc(C2(N3CCCC3)OC(C)(C)c3cccc4cccc2c34)cc1 (stereo not drawn) :: 14.5 µM (inactive)
O=C(O)CCC(=O)Nc1ccc2c(c1)S(=O)(=O)N(CC(=O)O)C2=O :: > 100 µM (inactive)
Cc1c(-c2ccccc2)c(C#N)c2nnn(-c3cccc(Cl)c3)c(=O)n12 :: 76.2 µM (inactive)
N=C(N)NS(=O)(=O)c1ccc(Nc2c3ccccc3nc3c(C(=O)NC(CO)(CO)CO)cccc23)cc1 :: > 10 µM (inactive)
CC1=Nn2c(nnc2-c2ccc(Cl)cc2)NC(C)(C)C1 :: > 100 µM (inactive)
O=P1(N(CCCl)CCCl)Oc2c(Cl)cc(Cl)c(Cl)c2Cc2c(Cl)c(Cl)cc(Cl)c2O1 :: 26.7 µM (inactive)
COc1cccc(C(=O)N2CCc3ccccc32)c1OC :: 48.9 µM (inactive)

Moving on to another compound below.
Request: Bench note: what GI50 did `COc1ccc(CNc2cnc3ccc(N)cc3n2)cc1` show?
Result: > 100 µM (inactive)
